inhibition at 1 µM values, listed per item
Target: c-Src kinase (Homo sapiens, UniProt P12931)
Construct: purchased Millipore (KinaseProfiler Service)
Sequence (P12931 whole entry): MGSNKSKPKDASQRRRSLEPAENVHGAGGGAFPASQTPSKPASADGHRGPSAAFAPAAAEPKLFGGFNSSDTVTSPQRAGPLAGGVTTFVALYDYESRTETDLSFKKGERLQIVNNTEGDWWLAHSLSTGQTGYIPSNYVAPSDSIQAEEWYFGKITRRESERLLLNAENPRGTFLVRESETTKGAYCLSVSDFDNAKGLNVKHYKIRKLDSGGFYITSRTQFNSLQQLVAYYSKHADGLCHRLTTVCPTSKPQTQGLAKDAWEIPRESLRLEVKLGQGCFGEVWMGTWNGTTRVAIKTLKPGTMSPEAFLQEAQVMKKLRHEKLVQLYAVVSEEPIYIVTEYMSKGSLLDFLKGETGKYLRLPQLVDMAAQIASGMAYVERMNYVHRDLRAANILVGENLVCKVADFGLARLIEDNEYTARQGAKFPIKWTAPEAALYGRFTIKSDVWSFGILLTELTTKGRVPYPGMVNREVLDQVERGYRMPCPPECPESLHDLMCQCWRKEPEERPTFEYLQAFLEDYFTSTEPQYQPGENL
Experiment: KinaseProfiler kinase inhibition assay, c-Src
Format: biochemical
Settings: 1 μM compound; read-out: % Inhibition @1 μM cSrc

SMILES	inhibition at 1 µM / %
CCN1CCN(c2ccc(Nc3ncnc(Oc4cc(F)c5[nH]c(C)cc5c4F)c3C#N)cc2)CC1	3
Cc1cc2c(F)c(Oc3ncnc(Nc4ccc(N5CCN(C)CC5)cn4)c3F)ccc2[nH]1	11
CCN1CCN(c2ccc(Nc3cc(Oc4cc(F)c5[nH]c(C)cc5c4F)ncn3)cc2)CC1	74
Cc1cc2c(F)c(Oc3cc(Nc4ccccn4)ncn3)ccc2[nH]1	21
CCN1CCN(c2ccc(Nc3ncnc(Oc4ccc5c(cc(C)n5C)c4F)c3F)cc2)CC1	1
Cc1cc2c(F)c(Oc3cc(Nc4cc(C5CC5)[nH]n4)ncn3)ccc2[nH]1	54
COc1cc(CCc2cc(Nc3cc(Oc4ccc5[nH]c(C)cc5c4F)ncn3)n[nH]2)cc(OC)c1	9
CCN1CCN(c2ccc(Nc3ncnc(Oc4cc(F)c5[nH]c(C)cc5c4F)c3C#N)nc2)CC1	-9
